# methodSummary: Liver microsome stability, mouse
# Format: in vitro ADME
# conditionParameters: liver microsomes, pH 7.4, Table 2B, read-out: Microsome Stability Mouse t1/2
experimentalReadout: half-life at 10 μM

- [2H]C([2H])([2H])N(CC(=O)O)C(=N)NC(=O)CCCCCCCCCCO: > 90 min
- [2H]C([2H])([2H])N(CC(=O)[O-])C(=N)NC(=O)CCCCCCCCCCCO.[Na+]: > 90 min
- [2H]C([2H])([2H])N(CC(=O)OC(C)(C)C(C)C)C(=N)NC(=O)CCCCCC: < 5 min
- [2H]C([2H])([2H])N(CC(=O)OC(C)(C)C(C)(C)O)C(=N)NC(=O)CCCCCC: < 5 min
- [2H]C([2H])([2H])N(CC(=O)[O-])C(=N)NC(=O)CCCCCCCCCC(C)O.[Na+] (stereo not drawn): > 90 min
- [2H]C([2H])([2H])N(CC(=O)OC(C)(C)C(C)C)C(=N)NC(=O)CCCCCCCCCC: < 5 min
- [2H]C([2H])([2H])N(CC(=O)OC(C)(C)C(C)(C)O)C(=N)NC(=O)CCCCCCCCCC: < 5 min
- Cl.[2H]C([2H])([2H])N(CC(=O)OC(C)(C)C)C(=N)NC(=O)CCCCCCCCCC: < 5 min
- [2H]C([2H])([2H])N(CC(=O)[O-])C(=N)NC(=O)CCCCCCCCCO.[Na+]: > 90 min

* * *

# methodSummary: Plasma stability, human plasma
# Type: in vitro ADME
# conditionParameters: Table 2A, 37 °C, read-out: Plasma Stability Human t1/2
experimentalReadout: half-life (h)

• Cl.[2H]C([2H])([2H])N(CC(=O)OC(C)(C)C)C(=N)NC(=O)CCCCCCCCCC = 1.67
• [2H]C([2H])([2H])N(CC(=O)OCC)/C(=N\C(=O)OC(C)(C)C)NC(=O)CCCCCCCCCC = 2.82

* * *

# methodSummary: Plasma stability, human plasma
# Type: in vitro ADME
# conditionParameters: Table 2A, 37 °C, read-out: Plasma Stability Human t1/2
experimentalReadout: half-life

• [2H]C([2H])([2H])N(CC(=O)[O-])C(=N)NC(=O)CCCCCCC.[Li+] = > 3 h
• Cl.[2H]C([2H])([2H])N(CC(=O)OCCCCCCC)C(=N)NC(=O)CCCCCCCCCC = 0.0833 h
• [2H]C([2H])([2H])N(CC(=O)[O-])C(=N)NC(=O)CCCC/C=C\CCCCCCCCCCC.[Na+] = > 3 h
• [2H]C([2H])([2H])N1CC(=O)N=C1NC(=O)CCCCCCCCCC = > 3 h
• Cl.[2H]C([2H])([2H])N(CC(=O)OCCCCCCC)C(=N)NC(=O)CCCCCCCCCCCC = < 0.0833 h

* * *

# System: ARPE-19 cells
# methodSummary: Creatine prodrug uptake and d3-creatine release in ARPE-19 cells (Table 4A)
# Format: cell-based, human
# conditionParameters: 50 μM, 6 h, cytosol fraction, corrected for total protein
experimentalReadout: prodrug, Cellular Uptake

* Cl.[H]/N=C(/NC(=O)CCCCCCC/C=C\CCCCCCCC)N(CC(=O)OCCCCCCC)C([2H])([2H])[2H] [Compound 2] | BQL
* Cl.[2H]C([2H])([2H])N(CC(=O)OC(C)C)C(=N)NC(=O)CCCCCCC/C=C\CCCCCCCC [Compound 45] | BQL
* [2H]C([2H])([2H])N(CC(=O)O)C(=N)NC(=O)CCCCCCCCCCC [Compound 30] | 29.2 nmol/mg protien
* [2H]C([2H])([2H])N(CC(=O)[O-])C(=N)NC(=O)CCCCCCCCCCCCC.[Li+] [Compound 7] | 13.1 nmol/mg protien
* [2H]C([2H])([2H])N(CC(=O)[O-])C(=N)NC(=O)CCCCCCC/C=C\CCCCCCCC.[Na+] [Compound 1] | 24.8 nmol/mg protien
* [2H]C([2H])([2H])N(CC(=O)[O-])C(=N)NC(=O)c1cccnc1.[Na+] [Compound 20] | BQL
* Cl.[2H]C([2H])([2H])N(CC(=O)OCCCCCCC)C(=N)NC(=O)CCCCCCCCCC [Compound 5] | BQL
* Cl.[2H]C([2H])([2H])N(CC(=O)OCCCCCCC)C(=N)NC(=O)CCCCCCCCCCCC [Compound 11] | BQL

Sourced from patent US11332438B2
